procedureSummary: physchem
experimentalContext: Average of at least three determinations on different LC-ABZ columns; 20 mM MOPS pH 7.4/methanol with octanol; extrapolated to 0% methanol
Kindly state log k′2 (capacity factor extrapolated to 0% methanol) for each of the entries shown.
Give bare numbers.

Please review the entries below; each comes with its answer.
INSERT INTO results (compound, observed) VALUES
  ('Oc1ncnc2[nH]ncc12', '−0.89'),
  ('CN1C(=O)C(O)N=C(c2ccccc2Cl)c2cc(Cl)ccc21 (centres unmarked)', 2.40),
  ('NC(=O)N/N=C/c1ccc([N+](=O)[O-])o1', 0.10),
  ('CC(=O)OCC(=O)[C@@]1(O)CC[C@H]2[C@@H]3CCC4=CC(=O)CC[C@]4(C)[C@H]3[C@@H](O)C[C@@]21C [Hydrocortisone-21-acetate]', 1.93);

Next, consider the following compound.
Which log k′2 (capacity factor extrapolated to 0% methanol) is reported for this compound? COC1=CC(=O)C[C@@H](C)[C@]12Oc1c(Cl)c(OC)cc(OC)c1C2=O 2.21
